Here the recorded self-cleavage is given for each entry.
B1: LINE1-full (parent)
chain: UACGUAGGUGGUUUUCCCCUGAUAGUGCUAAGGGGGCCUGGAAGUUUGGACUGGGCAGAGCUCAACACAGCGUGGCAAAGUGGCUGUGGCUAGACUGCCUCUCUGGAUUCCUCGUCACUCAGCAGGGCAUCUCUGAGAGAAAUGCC

Variants of: B1
Assay: self-cleavage, relative activity (ratio to wild type); higher = more cleavage; in vitro, sequencing; the parent is a self-cleaving ribozyme
Write the value as a bare number.

Illustrative cases are given below, each with its answer.
INPUT SEQUENCE	self-cleavage
UACGUAGGUGGUUUUCCCCUGAUAGUGCUAAGGGGGCCUGGAAGUUUGAACUGGGCAGAGCUCAACACAGCGUGGCAAAGUGGCUGUGGCUAGACUGCCUCUCUGGAUUCCUCGUCACUCAGCAGGGCUUCUCUGAGAGAAAUGCC [G49A A129U]	1.46
UACGUUGGUGGUUUUCCCCUGAUAGUGCUAAGGGGGCCUGGAAGUUUGGACUGGGCAGAGCUCCACACAGCGUGGCAAAGUGGCUGUGGCUAGACUGCCUCUCUGGAUUCCUCGUCACUCAGCAGGGCAUCUCUGAGAGAAAUGCC [A6U A64C]	0.68
UACGUAGGUGGUUUUCCCCUGAUAGUGCUAAGGGGACCUGGAAGUUUGGACUGGGCAGAGCUCAACACAGCGUGGCAAAGUGGCUGUGGCUAGACUGCCUCUCUGGAUUCCUUGUCACUCAGCAGGGCAUCUCUGAGAGAAAUGCC [G36A C113U]	1.02
UACGUAGGUGGUUUUCCCCUGAUAGUGCUAAGGGGGCCUGGAAGUUUGGACUGGCCAGAGCUCAACACAGCGUGGCAAAGUGGCUGUGGCUAGACUGCCUCUCUGGUUUCCUCGUCACUCAGCAGGGCAUCUCUGAGAGAAAUGCC [G55C A107U]	0.08
UACGCAGGUGGUUUUCCCCUGAUAGUGCUAAGGGGGCCUGGAGGUUUGGACUGGGCAGAGCUCAACACAGCGUGGCAAAGUGGCUGUGGCUAGACUGCCUCUCUGGAUUCCUCGUCACUCAGCAGGGCAUCUCUGAGAGAAAUGCC [U5C A43G]	1.03
UACGUAGGUGGUUUUCCCCUGAUAGUGCUAAGGGGGCCUGGAAGCUUGGACUAGGCAGAGCUCAACACAGCGUGGCAAAGUGGCUGUGGCUAGACUGCCUCUCUGGAUUCCUCGUCACUCAGCAGGGCAUCUCUGAGAGAAAUGCC [U45C G53A]	1.64

What value of self-cleavage has been reported for the following variant? UACGUAGGUGGUUUUCCCCUGAUAGUGCUAAGGGGGCCUGGAAGUUUCGACUGGGCAGAGCUCAACACAGCGUGGCAAAGUGGCUGUGGCCAGACUGCCUCUCUGGAUUCCUCGUCACUCAGCAGGGCAUCUCUGAGAGAAAUGCC [G48C U91C]
1.05

Can you handle UACGUAGGUGGUUUUCCCCUGAUAGUGCUAAGGCGGCCUGGAAGUUUGGACUGGGCAGAGCUCAACACAGCGUGGCAAAGUGGCUGUGGCUAGACUGCCUCUCUGGAUUCCUCGUCACUCAGCAGGGCACCUCUGAGAGAAAUGCC [G34C U130C] next?
0.88

Can you handle UACGUAGGUGGUUUCCCCCUGAUAGUGCUAAGGGGGCCUGGAAAUUUGGACUGGGCAGAGCUCAACACAGCGUGGCAAAGUGGCUGUGGCUAGACUGCCUCUCUGGAUUCCUCGUCACUCAGCAGGGCAUCUCUGAGAGAAAUGCC [U15C G44A] next?
1.41
